tested_target: Aldehyde dehydrogenase 1A1 (Homo sapiens)
assay_procedure: qHTS Assay for Inhibitors of Aldehyde Dehydrogenase 1 (ALDH1A1)
condition_info: Purified ALDH1A1, NADH fluorescence, propionaldehyde substrate; series mostly up to 75.3 µM
Screen size: about 220,000 compounds; about 16,000 (7.3%) were called active. About 25% were inconclusive and are not listed. Calls come from the whole dose curve; as a rule, active = well fitted inhibition curve with a large enough effect (not every such curve was filed as active); inconclusive = small, poorly fitted or top-dose-only effect, or another doubt; inactive = no such curve, though single readings can be large or run the other way. Only a selection was taken, and actives are over-represented in it overall.
Hi! Could you answer with just one of these? label 1 (active), label 0 (inactive)

Any idea what this test logged for C=CCSSCC=C ? label 1

Any idea what this test logged for Cc1ccc(-c2cc(C(=O)N3CCC4(CC3)OCCO4)no2)cc1 ? label 0

Any idea what this test logged for O=C(c1cc(S(=O)(=O)N2CCOCC2)ccc1F)N1CCC2(CC1)OCCO2 ? label 0

Any idea what this test logged for O=C(CN1CCCC1=O)NCCc1ccccc1 ? label 0

Any idea what this test logged for c1ccc2c(c1)[I+]c1ccccc1-2 ? label 0

Any idea what this test logged for O=C(Nc1cccc(OC(=O)N2CCCCC2)c1)N1CCOCC1 ? label 0

Any idea what this test logged for CCc1cccc2c(C#N)cn(CC(=O)N3CCOCC3)c12 ? label 0

###

tested_target: Aldehyde dehydrogenase 1A1 (Homo sapiens)
assay_procedure: qHTS Assay for Inhibitors of Aldehyde Dehydrogenase 1 (ALDH1A1)
condition_info: Purified ALDH1A1, NADH fluorescence, propionaldehyde substrate; series mostly up to 75.3 µM
The campaign covered roughly 220,000 compounds. About 16,000 (7.3%) were called active. Another 25% or so got no clear call; they are omitted. The call rests on the fitted dose curve; in most records, active means well fitted inhibition curve with a large enough effect (not every such curve was filed as active); inconclusive means small, poorly fitted or top-dose-only effect, or another doubt; inactive means no such curve, though single readings can be large or run the other way. Shown is part of a subset that was picked to be rich in actives.
Hi! Could you answer with just one of these? active, inactive

Any idea what this test logged for O=c1c2ccccc2nc(-c2ccccc2)n1-c1ccccn1 ? inactive

Any idea what this test logged for O=c1c2ccccc2nc(-c2ccc(Cl)cc2Cl)n1-c1ccncc1 ? inactive

Any idea what this test logged for COC(=O)c1ccc2[se]c(CC3CCCCC3)c(I)c2c1 ? inactive

Any idea what this test logged for Cc1cccc(-n2c(O)c(/C=N/N3CCOCC3)c(=O)[nH]c2=S)c1 ? inactive

Any idea what this test logged for CC1=C(C(=O)Nc2ccccc2)SCCO1 ? inactive

Any idea what this test logged for CC12CN3CC(C)(CN(C1)C3c1cccs1)C2 (configuration not stated) ? inactive

Any idea what this test logged for Fc1ccc(C(OCCN2CCN(C/C=C\c3ccccc3)CC2)c2ccc(F)cc2)cc1 ? inactive

Any idea what this test logged for Cc1cccc2c(CCN)c[nH]c12 ? inactive

Any idea what this test logged for CCCn1c(C(=O)c2ccccc2OC)nc2ccccc21 ? inactive

Any idea what this test logged for CN1[C@@H]2CC[C@H]1CC(OC(=O)c1cc(Cl)cc(Cl)c1)C2 (some centres not stated) ? inactive

Any idea what this test logged for NCCc1ccc(S(=O)(=O)F)cc1 ? inactive

Any idea what this test logged for O=C(NCC(c1cccnc1)N1CCN(c2ccccc2)CC1)Oc1ccccc1 (configuration not stated) ? inactive

Any idea what this test logged for Cc1ccc(-n2c(-c3ccc([N+](=O)[O-])cc3)nc3ccccc3c2=O)cc1 ? active

Any idea what this test logged for CCCCN1C2CCC1CC(OC(c1ccc(F)cc1)c1ccc(F)cc1)C2 (configuration not stated) ? inactive

Any idea what this test logged for COC1=C[C@@H]2[C@@H]3Cc4ccc(OC)c(O)c4[C@]2(CCN3C)CC1=O ? inactive

Any idea what this test logged for c1ccc(CN2CC[C@@]3(CCCNC3)C2)cc1 ? inactive

Any idea what this test logged for CC(C(=O)Nc1ccc(Cl)cc1Cl)N1CC=C(c2ccccc2)CC1 (configuration not stated) ? inactive
